Target: ERα protein (HiBiT-tagged) in ESR1_HiBiT KI MCF7 cells (Homo sapiens, UniProt P03372)
Sequence (P03372 1-595): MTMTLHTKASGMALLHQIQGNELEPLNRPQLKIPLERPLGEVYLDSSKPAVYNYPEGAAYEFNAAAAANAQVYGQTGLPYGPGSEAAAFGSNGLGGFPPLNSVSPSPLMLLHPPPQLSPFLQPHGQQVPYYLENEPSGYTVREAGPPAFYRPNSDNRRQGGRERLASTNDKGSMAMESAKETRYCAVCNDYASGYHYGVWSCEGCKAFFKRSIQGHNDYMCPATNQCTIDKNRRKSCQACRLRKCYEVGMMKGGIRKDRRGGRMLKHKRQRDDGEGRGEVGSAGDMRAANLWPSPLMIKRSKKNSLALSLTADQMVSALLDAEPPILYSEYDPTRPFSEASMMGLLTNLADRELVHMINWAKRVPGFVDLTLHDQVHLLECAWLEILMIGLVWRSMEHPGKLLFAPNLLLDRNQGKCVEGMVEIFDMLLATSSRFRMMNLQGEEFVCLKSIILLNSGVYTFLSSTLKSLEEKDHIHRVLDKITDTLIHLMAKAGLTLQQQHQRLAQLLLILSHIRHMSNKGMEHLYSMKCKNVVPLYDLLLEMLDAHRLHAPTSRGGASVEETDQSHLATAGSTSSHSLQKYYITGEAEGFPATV
Assay: Nano Glo HiBiT Lytic Degradation Assay
Type: cell-based
Conditions: 6 hours with compound, 14-point dose response 1:3, bell-shape curve fit, half-maximal effect of first Hill model, read-out: MCF7 ESR1 HiBiT - (DC50)
Please use fulfilled for DC50 under 0.6 nM and not fulfilled for everything else, ties included.

>>> label("O=C1CC[C@H](N2Cc3cc(N4CCN(CC5CCN(c6ccc([C@@H]7c8ccc(O)cc8CC[C@@H]7c7ccccc7F)cc6)CC5)CC4)ccc3C2=O)C(=O)N1 (single isomer, unassigned) [II-24]")
"not fulfilled"
>>> label("C[C@H]1Cc2cc(O)ccc2[C@@H](c2ccc(N3CCC(CN4CCN(c5ccc6c(c5)CN([C@H]5CCC(=O)NC5=O)C6=O)CC4)CC3)cc2)[C@H]1c1ccccc1 [Compound I-174]")
"not fulfilled"
>>> label("Cc1ccc([C@H]2CC(F)(F)c3cc(O)ccc3[C@H]2c2ccc(N3CCC(CN4CCN(c5ccc6c(c5)CN([C@H]5CCC(=O)NC5=O)C6=O)CC4)CC3)cc2)cc1 (single isomer, unassigned) [Compound I-320]")
"fulfilled"
>>> label("Cc1ccc([C@@H]2CCc3cc(O)ccc3[C@@H]2c2ccc(N3CCC(CN4CCN(c5ccc6c(c5)CN([C@H]5CCC(=O)NC5=O)C6=O)CC4)CC3)cc2)cc1 (single isomer, unassigned) [II-37]")
"not fulfilled"
>>> label("O=C1CC[C@H](N2Cc3cc(N4CCN(CC5CCN(c6ccc([C@@H]7c8ccc(O)cc8CC[C@@H]7C7CCC8(CC7)CC8)cc6)CC5)CC4)ccc3C2=O)C(=O)N1 [Compound I-146]")
"not fulfilled"
>>> label("CN(CC1CCN(c2ccc([C@H]3c4ccc(O)cc4CC[C@H]3c3ccccc3)cc2)CC1)C1CN(c2ccc3c(c2)CN(C2CCC(=O)NC2=O)C3=O)C1 (single isomer, unassigned) [II-14]")
"not fulfilled"
>>> label("O=C1CCC(N2Cc3cc(N4CCN(CC5CCN(c6c(F)cc([C@@H]7c8ccc(O)cc8CC[C@@H]7C7CCCCC7)cc6F)CC5)CC4)ccc3C2=O)C(=O)N1 (stereo in doubt) [Compound I-159]")
"not fulfilled"
>>> label("O=C1CCC(N2Cc3cc(N4CCN(CC5CCN(c6ccc([C@@H]7c8ccc(O)cc8CC[C@@H]7c7ccccc7)cc6)CC5)CC4)c(F)cc3C2=O)C(=O)N1 (single isomer, unassigned) [II-38]")
"not fulfilled"
>>> label("CC(C)[C@H]1CCc2cc(O)ccc2[C@H]1c1ccc(N2CCC(CN3CCN(c4ccc5c(c4)CN(C4CCC(=O)NC4=O)C5=O)CC3)CC2)cc1 (stereo in doubt) [Compound I-128]")
"fulfilled"
>>> label("O=C1CC[C@H](N2Cc3cc(N4CCN(CC5CCN(c6ccc([C@@H]7c8ccc(B(O)O)cc8CC[C@@H]7c7ccccc7)cc6)CC5)CC4)ccc3C2=O)C(=O)N1 [Compound I-45]")
"not fulfilled"
>>> label("O=C1CC[C@H](N2Cc3cc(N4CCN(CCCCCOc5ccc([C@@H]6c7ccc(O)cc7CC[C@@H]6c6ccccc6)cc5)CC4)ccc3C2=O)C(=O)N1 [II-66]")
"fulfilled"
>>> label("O=C1CC[C@H](N2Cc3cc(N4CCN(CC5CCN(c6ccc([C@H]7c8ccc(O)cc8C(F)(F)C[C@H]7C7CCCCC7)cc6)CC5)CC4)ccc3C2=O)C(=O)N1 [Compound I-98]")
"not fulfilled"
>>> label("O=C1CC[C@H](N2Cc3cc(N4CCN(CC5CC6CCC(C5)N6c5ccc([C@H]6c7ccc(O)cc7CC[C@H]6c6ccccc6)cc5)CC4)ccc3C2=O)C(=O)N1 (single isomer, unassigned) [II-56]")
"fulfilled"
>>> label("Cc1cc(F)ccc1[C@H]1CC(F)(F)c2cc(O)ccc2[C@H]1c1ccc(N2CCC(CN3CCN(c4ccc5c(c4)CN([C@H]4CCC(=O)NC4=O)C5=O)CC3)CC2)cc1 [Compound I-326]")
"fulfilled"
>>> label("O=C1CCC(N2Cc3cc(C4=CCN(CC5CCN(c6ccc([C@@H]7c8ccc(O)cc8CC[C@@H]7c7ccccc7)cc6)CC5)CC4)ccc3C2=O)C(=O)N1 (some centres unmarked) [II-104]")
"not fulfilled"
>>> label("C[C@@H]1CN(CC2CCN(c3ccc([C@@H]4c5ccc(O)cc5CC[C@@H]4c4ccccc4)cc3)CC2)CCN1c1ccc2c(c1)CN([C@H]1CCC(=O)NC1=O)C2=O (single isomer, unassigned) [II-3]")
"not fulfilled"
>>> label("O=C1CCC(N2Cc3cc(N4CCN(CC5CCN(c6ccc([C@H]7c8ccc(O)cc8CC[C@H]7C7CCCC7)cc6)CC5)CC4)ccc3C2=O)C(=O)N1 (single isomer, unassigned) [Compound I-53]")
"not fulfilled"
>>> label("O=C1CC[C@H](N2Cc3cc(N4CCN(CC5CCN(c6cc(F)c(C7=C(c8ccccc8)CCc8cc(O)ccc87)c(F)c6)CC5)CC4)ccc3C2=O)C(=O)N1 [Compound I-10]")
"not fulfilled"

---

Molecular target: ERα protein (HiBiT-tagged) in ESR1_HiBiT KI MCF7 cells (Homo sapiens)
Sequence (P03372 1-595): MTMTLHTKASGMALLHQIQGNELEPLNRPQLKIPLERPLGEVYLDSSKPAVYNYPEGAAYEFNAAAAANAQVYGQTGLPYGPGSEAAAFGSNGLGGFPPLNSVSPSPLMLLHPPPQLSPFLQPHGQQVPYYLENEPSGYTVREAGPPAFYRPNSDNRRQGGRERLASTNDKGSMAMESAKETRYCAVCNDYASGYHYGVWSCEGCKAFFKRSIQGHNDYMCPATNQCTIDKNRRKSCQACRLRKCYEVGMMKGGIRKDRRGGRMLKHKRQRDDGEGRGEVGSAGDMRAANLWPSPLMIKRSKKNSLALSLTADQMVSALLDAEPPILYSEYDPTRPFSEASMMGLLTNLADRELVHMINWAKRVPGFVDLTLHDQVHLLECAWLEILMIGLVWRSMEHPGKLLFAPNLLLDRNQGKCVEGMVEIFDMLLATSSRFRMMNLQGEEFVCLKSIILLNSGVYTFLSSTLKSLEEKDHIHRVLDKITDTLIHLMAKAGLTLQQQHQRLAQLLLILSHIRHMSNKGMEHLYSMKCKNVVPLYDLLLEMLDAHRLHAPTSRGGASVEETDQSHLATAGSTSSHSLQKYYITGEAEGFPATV
Assay: Nano Glo HiBiT Lytic Degradation Assay
Format: cell-based
Conditions: 6 hours with compound, 14-point dose response 1:3, bell-shape curve fit, half-maximal effect of first Hill model, read-out: MCF7 ESR1 HiBiT - (DC50)
Readout: DC50 (nM)

>>> quantitative_readout("O=C1CC[C@H](N2Cc3cc(N4CCN(CC5CCN(c6ccc([C@@H]7c8ccc(O)cc8C(F)(F)C[C@@H]7c7cc(F)ccc7F)cc6)CC5)CC4)ccc3C2=O)C(=O)N1 [Compound I-316]")
0.3
>>> quantitative_readout("O=C1CC[C@H](N2Cc3cc(N4CCN(CC5CCN(c6ccc([C@@H]7c8ccccc8CC[C@@H]7c7ccccc7)cc6)CC5)CC4)ccc3C2=O)C(=O)N1 [Compound I-47]")
79
>>> quantitative_readout("Cc1ccc([C@@H]2OCc3cc(O)ccc3[C@@H]2c2ccc(N3CCC(CN4CCN(c5ccc6c(c5)CN([C@H]5CCC(=O)NC5=O)C6=O)CC4)CC3)cc2)cc1F (single isomer, unassigned) [Compound I-356]")
54
>>> quantitative_readout("O=C1CC[C@H](N2Cc3cc(N4CCN(CC5CCN(c6ccc([C@@H]7c8ccc(O)cc8CO[C@]78CCCc7ccccc78)cc6)CC5)CC4)ccc3C2=O)C(=O)N1 (single isomer, unassigned) [Compound I-272]")
4
>>> quantitative_readout("O=C1CC[C@H](N2Cc3cc(N4CCN(CC5CCN(c6ccc([C@H]7c8ccc(O)cc8CO[C@H]7c7ccccc7)cc6F)CC5)CC4)ccc3C2=O)C(=O)N1 (single isomer, unassigned) [Compound I-382]")
2
>>> quantitative_readout("O=C1CC[C@H](c2ccc(N3CCC4(CCN(CC5CCN(c6ccc([C@@H]7c8ccc(O)cc8C(F)(F)C[C@@H]7c7ccccc7)cc6)CC5)C4)CC3)cc2)C(=O)N1 (single isomer, unassigned) [Compound I-285]")
0.27
>>> quantitative_readout("O=C1CC[C@H](N2Cc3cc(N4CCN(C[C@@H]5CCCN(c6ccc([C@H]7c8ccc(O)cc8CC[C@H]7c7ccccc7)cc6)C5)CC4)ccc3C2=O)C(=O)N1 (single isomer, unassigned) [II-21]")
173
>>> quantitative_readout("O=C1CC(N2Cc3cc(N4CCN(CC5CCN(c6ccc([C@@H]7c8ccc(O)cc8CC[C@@H]7c7ccccc7)cc6)CC5)CC4)ccc3C2=O)C(=O)N1 (stereo partly shown) [Compound I-274]")
1
